// reported half-life per item
# Test Protocol: Half life in mouse at 1 mg/kg, iv
# Assay type: ADME, organism-based
# Condition Info: in vivo
Please reply with the bare figure in h and do not write the unit itself.

Solved cases (3 shown):
                              record_smiles  test_result
0  COCCOc1cncc(-n2c(=O)[nH]/c(=N\c3cc4cn(C)nc4cc3Cl)n(Cc3cc(Cl)c(F)cc3F)c2=O)c1          1.7
1  COc1cncc(-n2c(=O)[nH]/c(=N\c3cc4cn(C)nc4cc3Cl)n(Cc3cc(Cl)c(F)cc3Oc3ccc(F)cc3)c2=O)c1          4.6
2  Cc1cncc(-n2c(=O)[nH]/c(=N\c3cc4cn(C)nc4cc3Cl)n(Cc3cc(C#N)ccc3Sc3ccc(Cl)s3)c2=O)c1         2.48

# input for lookup
Give reported half-life value for `COCCOc1cncc(-n2c(=O)[nH]/c(=N\c3cc4cn(C)nc4cc3Cl)n(Cc3cc(C#N)ccc3C)c2=O)c1`
1.2

Data origin: ChEMBL document CHEMBL6134832
